All figures here come from patent US20190055322A1.

- SUBJECT OF TEST: recombinant PcrV protein (rPcrV), strain PAO1, amino acid residues 1-294, C-terminal His6 (Pseudomonas aeruginosa strain PAO1)
- TEST DETAILS: ELISA, periplasmic extract on biotinylated rPcrV
Catalogue of binding ELISA (OD 450 nm) values
PROPERTY NAME: binding ELISA (OD 450 nm)

>>> measured("Nanobody 5H01 (VHH, also called 05H01) VHH: EVQLVESGGGLVQPGGSLRLSCAASGSTLDYYAIGWFRQAPGKEREGVSCTSNSGSTYYGGSVKGRFTASRDNAKNTVYLQMNSLRPEDTAVYYCVATIGCATLGGTLDVQRYYYRGQGTQVTVSS")
2.69
>>> measured("Nanobody 2B10 (VHH, also called 02B10) VHH: EVQLVESGGGLVQPGGSLRLSCAASGSIFSINNMGWYRQAPGKQRELVTVVTSNLITTYADSVKGRFTISRDNAKNTVYLQMNSLKPEDTAVYYCNAWARSVGSVPYSQFWGQGTLVTVSS")
2.57
>>> measured("Nanobody 3E10 (VHH) VHH: EVQLVESGGGLVQAGGSLRLSCTASGHTFSSYTMGWFRQAPGKEREFVAAMTRSGFNTHYSDSVKGRFTISRDNTSRDNTKITMALQMNSLKPEDTAVYYCTTGRGLTSYVANFWGQGTQVTVSS")
2.51
>>> measured("Nanobody 5E02 (VHH) VHH: EVQLVESGGGLVQPGGSLRLSCAASGITLDSIAICWFRQAPGKEREGVSCSRGSDGSTYYADSVKGRFTISRVNAKNTVYLQMNSLKPEDTAVYYCAAAPSIFYSGGYFPSGMDYWGKGTQVTVSS")
2.43
>>> measured("Nanobody 2B02 (VHH) VHH: EVQLVESGGGLVQPGDSLRLSCAASGRILSINNMVWYRQAPGKQRELVAHITSSGSTGYADSVKGRFTISRDNAKNTFYLQMTNLNPEDTAVYYCNCWVSSDSNAPLKNYWGQGTQVTVSS")
2.4
